Target: T1, cynomolgus CD39 (full length, on CHOK1-cynoCD39 cells) (cynomolgus monkey, UniProt A0A7N9DGH8 1-510)
T1 construct: whole, on cells; also called cCD39
T1 sequence: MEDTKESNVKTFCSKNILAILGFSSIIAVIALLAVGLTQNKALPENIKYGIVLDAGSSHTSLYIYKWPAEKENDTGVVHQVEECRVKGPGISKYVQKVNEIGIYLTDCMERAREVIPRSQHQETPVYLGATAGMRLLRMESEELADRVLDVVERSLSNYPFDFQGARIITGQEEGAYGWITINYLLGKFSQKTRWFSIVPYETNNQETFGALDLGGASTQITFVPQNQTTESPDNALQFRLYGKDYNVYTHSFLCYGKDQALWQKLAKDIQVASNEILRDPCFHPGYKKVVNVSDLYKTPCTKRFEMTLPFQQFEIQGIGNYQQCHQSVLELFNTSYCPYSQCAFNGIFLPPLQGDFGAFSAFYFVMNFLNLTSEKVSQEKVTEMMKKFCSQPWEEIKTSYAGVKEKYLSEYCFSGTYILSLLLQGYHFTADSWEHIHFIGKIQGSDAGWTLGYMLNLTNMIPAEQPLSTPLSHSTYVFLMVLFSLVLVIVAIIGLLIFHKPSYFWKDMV
Assay: FACS, CHOK1-cynoCD39 cells
I'd be grateful if you could share measured pEC50 for these entries.
Give bare numbers, as −log10 of the molar value.

Known results for binders:
binder | measuredMetric | reported
mAb34 (antibody, V domains shown, mouse hybridoma antibody) VH: EIQVQQSGPELVKPGASVKVSCKASGYSFTDYNMYWVKQSHGKSLEWIGFIDPYNGYTSYNQKFKGKATLTIDKSSSTAFMHLNSLTSEDSAVYYCAIYGYDDAYYFDYWGQGTTLTVSS VL: QIVLTQSPAIMSASPGEKVTITCSATSSVSYMHWFRQKPGTSPKLWIYSTSNLASGVPARFSGSGSGTSYSLTISRMAAEDAATYYCQQRITYPFTFGSGTKLEIT | pEC50 | 8.51
Antibody 9-8B (antibody, V domains shown) VH: QIQLVQSGPELKKPGETVKISCKASGYTFTHYGMNWVKQAPGKGLKWMGWINTYTGELTYADDFKGRFAFSLETSASTAYLQINNLKNEDTATYFCARRAYYRYDYVMDYWGQGTSVTVSS VL: DIVMTQSQKFMSTSVGDRVSVTCKASHNVGTNVAWYQQKPGQSPKALIYSASYRYSGVPGRFTGSGSGTDFTLTISNVQSEDLAEYFCHQYNNYPYTFGGGTKLEIK | pEC50 | 8.80

Now for a further binder.
Task: Using known records, supply pEC50 for mAb14 (antibody, V domains shown, mouse hybridoma antibody) VH: EVKLEESGGGLVQPGGSMKLSCVASGFTFSKYWMNWVRQSPEKGLEWVAEIRLKSNKYGTHYAESVKGRFTISRDDSKNNVYLQMNNLRPEDTGIYYCTTQLDLYWFFDVWGAGTTVTVSS VL: DIVMTQSPAILSVTPGDRVSLSCRASQSISDYLHWYQQKSHESPRLLIKYASQSISGIPSRFSGSGSGSNFTLSINSVEPEDVGVYFCQNGHSLPLTFGAGTKLELR
Output: 8.47
